# reported inhibition; entries follow
Assay: M. tuberculosis H37Rv growth inhibitors, H37Rv strain (AID 1626);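 note: bacteria incubated seven days before Alamar blue readout; 0% = bacteria only wells and 100% = bacteria with antibiotic wells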
Details: stronger effect = higher value, concentration not given here
Among all 220,000 compounds or so, about 2,000 (0.91%) were called active. About 2% were inconclusive and are not listed. Not all results are given here. Entries with a potency or affinity are not part of this list.
The reply should be a number in %, with the unit left off.

# inhibition lookup, item CCn1cc(Cl)c(C(=O)Nc2nc3ccccc3n2CCN2CCCCC2)n1
3.91

Reported inhibition, molecule COc1ccc(CNCCC(c2ccc(F)cc2)c2ccc(OC)cc2)cc1 (stereo unspecified) : ____
41.6

Field request: inhibition | item: Cc1cccc(C)c1NC(=S)N1CCCN(C)CC1
-1.16

# get_value(readout='inhibition', item= CCn1c(NC(=O)Nc2ccccc2OC)nc2ccccc21 )
81.5

Could you tell me which inhibition is on file for O=C(Cn1cnc([N+](=O)[O-])n1)NC1CC1 ?
-0.97

Please report the recorded inhibition for COc1ccc(C(CCNCc2ccc(OC)c(OC)c2)c2ccc(F)cc2)cc1 (stereo unspecified) .
2.06

* * *

Test: M. tuberculosis H37Rv growth inhibitors, H37Rv strain (AID 1626)
Conditions: stronger effect = higher value, concentration not given here
Hit rate of the full screen: of about 220,000 compounds, about 2,000 (0.91%) were called active. About 2% were inconclusive and are not listed. These entries were drawn from the full list. Potency and affinity values are given separately.
valueType: inhibition (%)
Please state the figure in %; there is no need to write the unit.

// returns reported inhibition for input Cc1ccc(NC(=O)NCC2CCN(Cc3cccc(Cl)c3)CC2)c(Cl)c1
33.5

Name the reported inhibition value associated with the compound CCC(=O)N1CCc2cc(S(=O)(=O)NCCC(=O)N3CCN(c4ccccn4)CC3)ccc21
-5.78

Item under review: CCc1ccc(CCC(=O)Nc2ccc(S(N)(=O)=O)cc2)o1 . Reported inhibition?
1.79

More entries:
Quick one: inhibition of COc1ccccc1N=Nc1[nH]c2ccc(C)cc2c1O ?
9.9

Sample CCc1ccc(CCC(=O)Nc2ccc(C(C)=O)cc2)o1 — what was its inhibition?
7.37

Reported inhibition for Cc1cc(C(=O)C(C)Cl)c(C)n1Cc1ccco1 (stereo unspecified) : what is it?
0.64

Please report the recorded inhibition for CCOC(=O)c1cccc(NC(=S)NCc2ccc(C)cc2)c1 .
2.33

May I ask what inhibition has been recorded for O=C(CCC1COc2ccccc2O1)Nc1cccnc1 (stereo unspecified) ?
-8.19

Bench note: what inhibition did CC(=O)Oc1ccc(C(=O)Nc2cccc(C(=O)c3cccc(NC(=O)c4ccc(OC(C)=O)cc4)c3)c2)cc1 show?
74.4

* * *

Assay: M. tuberculosis H37Rv growth inhibitors, H37Rv strain (AID 1626)
Conditions: stronger effect = higher value, concentration not given here
The whole screen tested about 220,000 compounds, of which about 2,000 (0.91%) were called active. About 2% were inconclusive and are not listed. Only a sample is shown. Entries with a potency or affinity are not part of this list.
inhibition values, listed per item
Just the number in %, nothing appended.

# annotated cases, reported inhibition shown
Which measured inhibition value corresponds to O=C(Nc1ccc(F)c(Cl)c1)C1CC(=O)n2c(nc3ccccc32)N1 (stereo unspecified) ?
-5.64

Name the recorded inhibition for CCOC(=O)c1ccc(NCc2ccc3c(c2)OCO3)cc1 .
7.94

Reported inhibition for Cc1nc(C(=O)Nc2ccc(F)cc2)nn1-c1ccc([N+](=O)[O-])cc1 : what is it?
-5.91

Which value of inhibition has been reported for CS(=O)(=O)N1CCN(C2Cc3ccccc3C2)CC1 in the records?
-13.7

Item under review: COc1ccc(NC(=O)CCSc2nnc(C)s2)cc1 . Reported inhibition?
-0.89

inhibition for CC(C)(C)C1CCc2sc(-c3nnc(CCl)o3)cc2C1 (stereo unspecified) ?
43.6

Query: inhibition; subject: CCOC(=O)c1cnc(-n2nc(C)cc2C)nc1N1CC(C)OC(C)C1 (stereo unspecified)
-1.14

So what does the record say about inhibition for CCOC(=O)c1cnc(-n2nc(C)cc2C)nc1Nc1ccccc1OC ?
25.4

More entries:
Look at this compound and give its reported inhibition. Cc1ccc(NC2=C(Cl)C(=O)c3ccccc3C2=O)cc1
-1.97

What value of inhibition has been recorded for this entry: CCOC(=O)c1cnc(-n2nc(C)cc2C)nc1NCCO
4.03

Value lookup for inhibition; key = O=S(=O)(c1ccc(-c2csc(-c3cccnc3)n2)cc1)N1CCOCC1
3.97

* * *

Assay: M. tuberculosis H37Rv growth inhibitors, H37Rv strain (AID 1626);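 note: bacteria incubated seven days before Alamar blue readout; 0% = bacteria only wells and 100% = bacteria with antibiotic wells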
Conditions: stronger effect = higher value, concentration not given here
Among all 220,000 compounds or so, about 2,000 (0.91%) were called active. Not shown: some 2% with an inconclusive outcome. A selection follows. Potency and affinity values are given separately.
Is inhibition at least 10%? Then yes (1). If not, no (0).

Please check the record CC(=O)n1cc(Nc2ccc([N+](=O)[O-])cc2)c2ccccc21 and state if its inhibition is at or above 10%.
no (0)

Say whether O=C(Nc1ccc(Cl)c(C(F)(F)F)c1)c1ccco1 shows inhibition of 10% or more.
yes (1)

Hi, just wondering whether O=Cc1[nH]c2ccccc2c1N(C(=O)CCl)c1ccc([N+](=O)[O-])cc1 shows inhibition of 10% or higher.
no (0)

Check the entry COc1cc(/C=C/C(=O)OCC(=O)NC(=O)NC(C)(C)C)ccc1OCC#N : does inhibition equal or exceed 10%?
yes (1)

Dear colleague, could you confirm whether CC(=O)n1cc(-c2ccncc2)c2ccccc21 has inhibition at or above 10%?
no (0)

Is it the case that O=C(CCNc1cccc(C(F)(F)F)c1)c1ccco1 has inhibition reaching or exceeding 10%?
yes (1)

Would you say CC(=O)n1cc(Nc2ccccc2C(=O)O)c2ccccc21 shows inhibition at minimum 10%?
no (0)

Is the recorded value of inhibition equal to or greater than 10% for this compound? COC(=O)c1cn(C(=O)c2ccc(Cl)cc2)c2ccccc12
no (0)

***
Hi, just wondering whether COc1cc(/C=C/C(=O)O)cc(OC)c1OC shows inhibition of 10% or higher.
no (0)

Identify whether the reported inhibition of the following compound is 10% or greater: COc1ccc(Oc2ccc(/C=C/C(=O)c3cccc(OC)c3)cc2[N+](=O)[O-])cc1
no (0)

Is inhibition for O=C(/C=C/c1cccc([N+](=O)[O-])c1)Nc1cccc(NC(=O)c2cccs2)c1 at or above 10%?
yes (1)

* * *

Assay: M. tuberculosis H37Rv growth inhibitors, H37Rv strain (AID 1626);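 note: bacteria incubated seven days before Alamar blue readout; 0% = bacteria only wells and 100% = bacteria with antibiotic wells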
Settings: stronger effect = higher value, concentration not given here
Screen size: about 220,000 compounds; about 2,000 (0.91%) were called active. Inconclusive results (about 2%) are left out. The list is a sample of the results. Potency and affinity values are given separately.
valueType: inhibition (%)
Just the number please, in %, no unit attached.

Sample answers from the record:
Given the compound CC(=O)N/C(=C\c1cccc([N+](=O)[O-])c1)C(=O)NC1CCCCC1 , what is its reported inhibition?
-0.9

What value of measured inhibition is listed for CC1(C)C=Cc2c(ccc3c2OC[C@@H](c2ccc(O)cc2O)C3)O1 ?
1.16

Return reported inhibition; argument: FC(F)C(F)(F)c1cc(-c2ccc(Cl)cc2)n[nH]1
12.2

Can you share its inhibition? I mean this compound: CCCc1nc2c(sc3nc4c(cc32)COC(C)(C)C4)c(=O)n1Cc1ccco1
-1.51

Which inhibition is reported for this compound? O=C(Nc1cccc(NC(=S)NC(=O)c2cccs2)c1)c1ccccc1
-2.28

What value of inhibition has been recorded for this entry: FC(F)(F)c1nc2ccccc2nc1N/N=C/c1c(Cl)cccc1Cl
9.85

I would be grateful if you could share the reported inhibition for COc1ccccc1NC(=S)NCc1ccc2c(c1)OCO2 .
7.62

Dear colleague, I am looking for the recorded inhibition of the following compound: COc1ccccc1CC(=O)Nc1cc2oc3ccccc3c2cc1OC
-9.4

Next compound, inhibition to be filled in.
Which inhibition value belongs to CCN1CCN(c2cc(C)c3cc(NC(=O)c4ccc(Br)o4)ccc3n2)CC1 ?
-5.55

* * *

Assay: M. tuberculosis H37Rv growth inhibitors, H37Rv strain (AID 1626);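 note: bacteria incubated seven days before Alamar blue readout; 0% = bacteria only wells and 100% = bacteria with antibiotic wells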
Settings: stronger effect = higher value, concentration not given here
The campaign covered roughly 220,000 compounds. About 2,000 (0.91%) were called active. About 2% were inconclusive and are not listed. The list is a sample of the results. Entries with a potency or affinity are not part of this list.
valueType: inhibition (%)
Respond with the bare value in %.

Example results:
Tell me the measured inhibition of COC(=O)c1sccc1NC(=O)COc1cccc(C)c1 , please.
0.14

Returns the measured inhibition for the input compound. Input: CCOc1ccc(NC(=O)CSc2nnc(C3CC3)n2C)cc1
27.2

Query: inhibition; subject: Cc1ccc(-n2cccc2C(=O)NS(=O)(=O)c2ccc(C)cc2)cc1
-6.02

Could you share which inhibition value was measured for CN(C)CCCNc1nc2sc3c(c2c(=O)n1CCc1ccccc1)CCCCC3 ?
76.4

Name the recorded inhibition for COc1cccc(CNCCSc2nnnn2C)c1 .
6.16

Fill blank: measured inhibition of the compound O=C(CN(C(=O)Cn1nnc(-c2ccc(F)cc2)n1)C1CCCC1)NC1CCCC1 is ____.
0.92

State the recorded inhibition for this entry: Fc1cccc(Cl)c1/C=N/Nc1ccccn1
3.42

Give its inhibition value. Item: Nc1nc(-c2ccc(-c3ccccc3)cc2)cs1
-0.75

Alright, here's another compound for you.
Could you tell me which inhibition is on file for COc1ccc(CCNC(=O)CN(CCc2ccccc2)S(C)(=O)=O)cc1OC ?
5.24

Cited source for all entries: PubChem BioAssay AID1626
